Provide the recorded RGA IC50 for the entries that follow.
- TARGET_OR_TEST_SYSTEM: T1, human ST2L, full length, on cells (human, UniProt Q01638 19-556)
- T1 sequence: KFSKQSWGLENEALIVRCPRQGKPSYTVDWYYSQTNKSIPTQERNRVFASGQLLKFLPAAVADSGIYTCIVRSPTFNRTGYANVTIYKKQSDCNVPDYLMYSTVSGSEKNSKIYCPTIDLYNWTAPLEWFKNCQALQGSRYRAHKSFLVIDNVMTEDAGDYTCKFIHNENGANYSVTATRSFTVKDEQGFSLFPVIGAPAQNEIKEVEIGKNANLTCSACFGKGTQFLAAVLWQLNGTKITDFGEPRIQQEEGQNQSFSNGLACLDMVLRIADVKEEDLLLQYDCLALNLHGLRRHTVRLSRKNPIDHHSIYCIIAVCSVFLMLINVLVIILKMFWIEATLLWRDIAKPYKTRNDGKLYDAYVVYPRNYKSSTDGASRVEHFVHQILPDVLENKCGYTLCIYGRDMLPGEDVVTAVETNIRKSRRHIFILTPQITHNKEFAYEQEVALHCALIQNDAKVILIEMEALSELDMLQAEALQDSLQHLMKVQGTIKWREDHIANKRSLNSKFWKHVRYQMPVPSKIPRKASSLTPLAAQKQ
- TEST_SUMMARY: cell-based or functional assay
// return numeric value only (unit: µg/mL, not printed)

input: Could you share which RGA IC50 value was measured for STLM123 (antibody, V domains shown, frameworks VH3-23 / Vk-L6) VH: EVQLLESGGGLVQPGGSLRLSCAASGFTFSDYAMFWVRQAPGKGLEWVSAIEGEGGETNYADSVKGRFTISRDNSKNTLYLQMNSLRAEDTAVYYCARDPWSTEGSFFVLDYWGQGTLVTVSS VL: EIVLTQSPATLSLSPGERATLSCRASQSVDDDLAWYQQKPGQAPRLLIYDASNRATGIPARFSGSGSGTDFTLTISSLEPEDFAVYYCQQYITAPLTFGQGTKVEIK ?
output: 1.25

input: Do the same for STLM217 (antibody, V domains shown, frameworks VH3-23 / Vk-L6) VH: EVQLLESGGGLVQPGGSLRLSCAASGFTFSVYDMFWVRQAPGKGLEWVSDIKGEGGETSYADSVKGRFTISRDNSKNTLYLQMNSLRAEDTAVYYCARDPWSTEGSFFVLDYWGQGTLVTVSS VL: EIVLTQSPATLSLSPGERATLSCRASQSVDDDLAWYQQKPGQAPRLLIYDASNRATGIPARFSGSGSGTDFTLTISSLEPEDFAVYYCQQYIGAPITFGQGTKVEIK please
output: 1.69

input: Do the same for STLM226 (antibody, V domains shown, VH STLH201 + VL STLL280) VH: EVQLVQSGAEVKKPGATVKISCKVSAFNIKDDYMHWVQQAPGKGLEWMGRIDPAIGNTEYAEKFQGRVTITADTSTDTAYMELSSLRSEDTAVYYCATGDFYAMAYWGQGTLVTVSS VL: DIQMTQSPSSLSASVGDRVTITCITNTDIDDVIHWYQQKPGKAPKLLIYEGNTLRPGVPSRFSGSGSGTDFTLTISSLQPEDFATYYCLQSDNLLTFGQGTKLEIK please
output: 0.25
